Tested on: K562
ASSAY_DETAILS: NCI tumour cell line growth inhibition, 48 h
The source made the active and inactive calls. Cut-off read from the data, not from the text of the source: active = GI50 up to about 1.1 µM and inactive = higher.
OBSERVABLE: GI50

O=C(Nc1ccccc1)O/N=C1/CCCC/C1=C\c1ccccc1 | 10 µM (inactive)
COc1cc(OC)nc(-n2c(N)c(C(=O)O)c3ccc([N+](=O)[O-])cc3c2=O)n1 | > 100 µM (inactive)
Cn1c2ccccc2c2ccc3c(c21)C(=O)C(c1ccccc1)=CC3=O | 4.75 µM (inactive)
COc1cc(NC(C)=O)ccc1C(=O)NN1C(=O)C(Cl)C1c1ccco1 (stereo unspecified) | > 100 µM (inactive)
CNC(=O)OCc1nc(SC(C)C)n(C)c1COC(=O)NC | > 69.8 µM (inactive)

Return reported GI50. Input molecule: CN(C)CN1C(=O)/C(=N\n2c(S)nnc2-c2ccncc2)c2ccccc21
26.5 µM (inactive)

Where do the numbers come from? From ChEMBL document CHEMBL1201862.
